# credit: BindingDB's records for doi:10.1146/annurev.pa.30.040190.003221

Molecular target: UniProtKB P10980
Sequence (P10980 whole entry): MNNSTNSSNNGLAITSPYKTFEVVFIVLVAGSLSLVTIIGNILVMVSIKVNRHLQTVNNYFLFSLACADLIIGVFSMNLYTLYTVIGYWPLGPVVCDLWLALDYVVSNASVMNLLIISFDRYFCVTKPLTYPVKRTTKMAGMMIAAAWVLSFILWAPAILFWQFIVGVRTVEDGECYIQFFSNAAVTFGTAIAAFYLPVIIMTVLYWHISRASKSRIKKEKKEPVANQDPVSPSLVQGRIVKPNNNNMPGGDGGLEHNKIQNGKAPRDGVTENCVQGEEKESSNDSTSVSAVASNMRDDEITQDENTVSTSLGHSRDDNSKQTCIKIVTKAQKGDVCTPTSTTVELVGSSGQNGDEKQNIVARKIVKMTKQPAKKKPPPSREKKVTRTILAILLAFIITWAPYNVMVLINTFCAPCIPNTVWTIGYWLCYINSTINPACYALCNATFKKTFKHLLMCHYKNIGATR
pKi: −log10 of the molar value.
measured_property: pKi

molecule: C[C@H]1OC(=O)C2C[C@H]3CCCC[C@@H]3[C@@H](/C=C/[C@@H]3CCC[C@H](C)N3C)C21 (stereo partly specified) [HIMBACINE]
measured_property: pKi
observed_result: 8.10
